Test: Cmax in female CD1 mouse at 30 mg/kg, po by LC/MS/MS analysis
Details: in vivo
TEST_READOUT: Cmax (nM)

MOLECULE_SMILES	UNIT_STRING	RECORDED_RESULT
NCC(=O)N1CCn2c(nc(-c3ccc(F)cc3)c2Nc2ccc(F)cc2)C1	nM	234
CC(C)(N)C(=O)N1CCn2c(nc(-c3ccc(F)cc3)c2Nc2ccc(Cl)cc2)C1	nM	749
NCC(=O)N1CCn2c(nc(-c3cccc(F)c3)c2Nc2ccc(F)cc2)C1	nM	417
CC(C)(N)C(=O)N1CCn2c(nc(-c3ccc(F)cc3)c2Nc2ccc(Cl)c(F)c2)C1	nM	3320

###

Assay: Cytotoxicity against Cricetulus griseus CHO cells
Type: cell-based
Settings: chinese hamster, read-out: TC50 (the source's name)

MOLECULE_SMILES	CC50
CC(C)(N)C(=O)N1CCn2c(nc(-c3ccc(F)cc3)c2Nc2ccc(F)c(F)c2)C1	> 12 µM
CC(C)(N)C(=O)N1CCn2c(nc(-c3ccc(F)cc3)c2Nc2ccc(F)cc2)C1	> 12 µM

###

Experiment: Tmax in female CD1 mouse at 30 mg/kg, po by LC/MS/MS analysis
Settings: in vivo

MOLECULE_SMILES	Tmax / h
CC(C)(N)C(=O)N1CCn2c(nc(-c3ccc(F)cc3)c2Nc2ccc(Cl)cc2)C1	1
NCC(=O)N1CCn2c(nc(-c3cccc(F)c3)c2Nc2ccc(F)cc2)C1	2
NCC(=O)N1CCn2c(nc(-c3ccc(F)cc3)c2Nc2ccc(F)cc2)C1	2
CC(C)(N)C(=O)N1CCn2c(nc(-c3ccc(F)cc3)c2Nc2ccc(Cl)c(F)c2)C1	2

###

Test: in vivo
Conditions: female, CD1, mouse, plasma, po, 30 mg/kg
The entries below come with measured AUC(0-inf) values attached.
TEST_READOUT: AUC(0-inf) (µM·h)

MOLECULE_SMILES	TEST_READOUT	RECORDED_RESULT
NCC(=O)N1CCn2c(nc(-c3ccc(F)cc3)c2Nc2ccc(F)cc2)C1	AUC(0-inf)	0.965
NCC(=O)N1CCn2c(nc(-c3cccc(F)c3)c2Nc2ccc(F)cc2)C1	AUC(0-inf)	1.33
CC(C)(N)C(=O)N1CCn2c(nc(-c3ccc(F)cc3)c2Nc2ccc(Cl)cc2)C1	AUC(0-inf)	28.3
CC(C)(N)C(=O)N1CCn2c(nc(-c3ccc(F)cc3)c2Nc2ccc(Cl)c(F)c2)C1	AUC(0-inf)	36.7

###

Assay: in vivo
Settings: female, CD1, mouse, iv, 5 mg/kg
Description: Clearance in female CD1 mouse at 5 mg/kg, iv by LC/MS/MS analysis

MOLECULE_SMILES	clearance, L/h/kg
NCC(=O)N1CCn2c(nc(-c3cccc(F)c3)c2Nc2ccc(F)cc2)C1	11.5
NCC(=O)N1CCn2c(nc(-c3ccc(F)cc3)c2Nc2ccc(F)cc2)C1	11.3
CC(C)(N)C(=O)N1CCn2c(nc(-c3ccc(F)cc3)c2Nc2ccc(Cl)c(F)c2)C1	0.348
CC(C)(N)C(=O)N1CCn2c(nc(-c3ccc(F)cc3)c2Nc2ccc(Cl)cc2)C1	3.91

###

System: Plasmodium falciparum
Experiment: Antimalarial activity against Plasmodium falciparum 3D7 infected in human erythrocytes assessed as decrease in parasitemia after 72 hrs
Type: functional, organism-based
Conditions: 3D7, 72 h
Note to self: use class 1 only for IC50 readings below 700 nM; a reading exactly at 700 nM still gets class 0.

COMPOUND	CLASS_LABEL
Cc1ccc(-c2nc3n(c2Nc2ccc(F)cc2)CCN(C(=O)CN)C3)cc1	class 0
COc1ccc(-c2nc3n(c2Nc2ccc(F)cc2)CCN(C(=O)CN)C3)cc1	class 0
N[C@H](Cc1ccccc1)C(=O)N1CCn2c(nc(-c3ccc(F)cc3)c2Nc2ccc(F)cc2)C1	class 1
NCC(=O)N1CCn2c(nc(-c3ccc(F)cc3)c2Nc2cccc(F)c2)C1	class 1
CC(C)(N)C(=O)N1CCn2c(nc(-c3ccccc3)c2Nc2ccc(F)cc2)C1	class 1
Cc1ccc(Nc2c(-c3ccc(F)c(F)c3)nc3n2CCN(C(=O)C(C)(C)N)C3)cc1	class 1
NCC(=O)N1CCn2c(nc(-c3ccc(F)cc3)c2Nc2ccc(Cl)cc2)C1	class 1
NCC(=O)N1CCn2c(nc(-c3ccc(Cl)cc3)c2Nc2ccc(F)cc2)C1	class 1
CC(C)(N)C(=O)N1CCn2c(nc(-c3ccccc3F)c2Nc2ccc(F)cc2)C1	class 0
CC(C)CC(N)C(=O)N1CCn2c(nc(-c3ccccc3)c2Nc2ccc3c(c2)OCO3)C1 (racemic)	class 1
CC(C)(N)C(=O)N1CCn2c(nc(-c3ccc(F)cc3)c2Nc2ccc(F)cc2F)C1	class 1

###

Assay: Cytotoxicity against human 293T cells
Assay type: cell-based
Conditions: HEK-293T cells, read-out: TC50 (the source's name)
Reported CC50 by item:
TEST_READOUT: CC50

MOLECULE_SMILES	RECORDED_RESULT
CC(C)(N)C(=O)N1CCn2c(nc(-c3ccc(F)cc3)c2Nc2ccc(F)cc2)C1	> 12 µM
CC(C)(N)C(=O)N1CCn2c(nc(-c3ccc(F)cc3)c2Nc2ccc(F)c(F)c2)C1	> 12 µM

###

Assay: Half life in male BALB/c mouse at 20 mg/kg, po by LC/MS/MS analysis
Assay type: ADME, organism-based
Parameters: dose 20 mg/kg, route oral
Details: in vivo
Listed compounds paired with reported half-life
TEST_READOUT: half-life (h)

MOLECULE_SMILES	TEST_READOUT	RECORDED_RESULT
CC(C)(N)C(=O)N1CCn2c(nc(-c3ccc(F)cc3)c2Nc2ccc(F)cc2)C1	half-life	9
CC(C)(N)C(=O)N1CCn2c(nc(-c3ccc(F)cc3)c2Nc2ccc(F)c(F)c2)C1	half-life	7.7

###

Tested on: Plasmodium berghei
Assay: Antimalarial activity against GFP-tagged Plasmodium berghei ANKA infected in NMRI mouse assessed as reduction in parasitemia at 30 mg/kg, po QD administered 24 hrs post infection for 3 days measured on day 4 post infection
Type: functional
Set-up: scale not given: the % may be the effect or the level left

COMPOUND	SYSTEM_UNDER_TEST	QUALIFYING_SIGN	Activity / %
NCC(=O)N1CCn2c(nc(-c3cccc(F)c3)c2Nc2ccc(F)cc2)C1	Plasmodium berghei	=	99.7
CC(C)(N)C(=O)N1CCn2c(nc(-c3ccc(F)cc3)c2Nc2ccc(Cl)c(F)c2)C1	Plasmodium berghei	=	99.8
C[C@H]1[C@H](OC(=O)CCC(=O)O)O[C@@H]2O[C@@]3(C)CC[C@H]4[C@H](C)CC[C@@H]1[C@@]24OO3 [ARTESUNATE]	Plasmodium berghei	=	97
CC(C)(N)C(=O)N1CCn2c(nc(-c3ccc(F)cc3)c2Nc2ccc(Cl)cc2)C1	Plasmodium berghei	=	99.5
CCN(CC)CCCC(C)Nc1ccnc2cc(Cl)ccc12 (stereo unspecified) [CHLOROQUINE]	Plasmodium berghei	>	99.9
CC(C)(N)C(=O)N1CCn2c(nc(-c3ccc(F)cc3)c2Nc2ccc(F)cc2)C1	Plasmodium berghei	=	99.6

###

Measured CC50 of individual entries
Assay: Cytotoxicity against human HeLa cells
Format: cell-based
Details: read-out: TC50 (the source's name)
TEST_READOUT: CC50

MOLECULE_SMILES	RECORDED_RESULT
CC(C)(N)C(=O)N1CCn2c(nc(-c3ccc(F)cc3)c2Nc2ccc(F)c(F)c2)C1	> 12 µM
CC(C)(N)C(=O)N1CCn2c(nc(-c3ccc(F)cc3)c2Nc2ccc(F)cc2)C1	> 12 µM

###

Molecular target: Cytochrome P450 2C9 (Homo sapiens, UniProt P11712)
Sequence (P11712 whole entry): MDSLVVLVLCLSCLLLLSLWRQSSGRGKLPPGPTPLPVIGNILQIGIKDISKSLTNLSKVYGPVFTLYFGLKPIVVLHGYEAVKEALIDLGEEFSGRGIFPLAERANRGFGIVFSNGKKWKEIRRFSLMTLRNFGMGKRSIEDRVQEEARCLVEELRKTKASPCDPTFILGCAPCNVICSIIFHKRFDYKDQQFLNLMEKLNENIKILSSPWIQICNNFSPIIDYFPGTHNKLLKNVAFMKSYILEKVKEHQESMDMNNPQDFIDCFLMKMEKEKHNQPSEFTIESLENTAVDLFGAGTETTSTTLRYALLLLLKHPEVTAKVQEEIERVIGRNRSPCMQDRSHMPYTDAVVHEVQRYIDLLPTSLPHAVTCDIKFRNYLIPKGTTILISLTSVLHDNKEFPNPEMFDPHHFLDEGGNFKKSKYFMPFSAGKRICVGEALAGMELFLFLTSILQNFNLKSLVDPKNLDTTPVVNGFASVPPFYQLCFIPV
Assay: Inhibition of CYP 2C9
Format: ADME
pIC50: −log10 of the molar value.

MOLECULE_SMILES	pIC50
CC(C)(N)C(=O)N1CCn2c(nc(-c3ccc(F)cc3)c2Nc2ccc(F)cc2)C1	< 5.05
CC(C)(N)C(=O)N1CCn2c(nc(-c3ccc(F)cc3)c2Nc2ccc(F)c(F)c2)C1	< 5.05
NCC(=O)N1CCn2c(nc(-c3ccccc3)c2Nc2ccc3c(c2)OCO3)C1	< 5.00

###

Target: UniProtKB P10635
Sequence (P10635 whole entry): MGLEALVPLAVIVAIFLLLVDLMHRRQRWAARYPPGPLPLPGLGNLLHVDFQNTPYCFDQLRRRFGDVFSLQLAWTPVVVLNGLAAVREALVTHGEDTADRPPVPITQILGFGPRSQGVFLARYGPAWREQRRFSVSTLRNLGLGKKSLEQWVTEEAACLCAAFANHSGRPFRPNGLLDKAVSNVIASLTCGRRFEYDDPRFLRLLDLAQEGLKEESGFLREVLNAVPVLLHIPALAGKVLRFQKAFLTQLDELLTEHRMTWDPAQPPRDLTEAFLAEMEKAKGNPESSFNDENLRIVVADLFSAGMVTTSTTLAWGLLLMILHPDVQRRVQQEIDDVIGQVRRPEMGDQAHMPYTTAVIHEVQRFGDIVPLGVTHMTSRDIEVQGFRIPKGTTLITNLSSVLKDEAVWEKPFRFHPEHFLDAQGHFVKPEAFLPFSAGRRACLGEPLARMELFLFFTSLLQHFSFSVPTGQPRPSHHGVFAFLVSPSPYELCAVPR
pIC50: −log10 of the molar value.

MOLECULE_SMILES	pIC50
NCC(=O)N1CCn2c(nc(-c3ccccc3)c2Nc2ccc3c(c2)OCO3)C1	< 5.00
CC(C)(N)C(=O)N1CCn2c(nc(-c3ccc(F)cc3)c2Nc2ccc(F)c(F)c2)C1	< 5.05
CC(C)(N)C(=O)N1CCn2c(nc(-c3ccc(F)cc3)c2Nc2ccc(F)cc2)C1	< 5.05

###

Assay: in vivo
Conditions: female, CD1, mouse, iv, 5 mg/kg
Description: Volume of distribution in female CD1 mouse at 5 mg/kg, iv by LC/MS/MS analysis
List of Vd values.
TEST_READOUT: Vd (L/kg)

MOLECULE_SMILES	UNIT_STRING	RECORDED_RESULT
CC(C)(N)C(=O)N1CCn2c(nc(-c3ccc(F)cc3)c2Nc2ccc(Cl)cc2)C1	L/kg	40.5
CC(C)(N)C(=O)N1CCn2c(nc(-c3ccc(F)cc3)c2Nc2ccc(Cl)c(F)c2)C1	L/kg	1.7
NCC(=O)N1CCn2c(nc(-c3cccc(F)c3)c2Nc2ccc(F)cc2)C1	L/kg	21.6
NCC(=O)N1CCn2c(nc(-c3ccc(F)cc3)c2Nc2ccc(F)cc2)C1	L/kg	12.3

Where do the numbers come from? From ChEMBL document CHEMBL1800027.
